Reported Kd, hSSTR-2 (Homo sapiens, UniProt P30874).
Bridge positions count the residues as written; N and C are the ends. Square brackets hold non-standard residues; d marks the D form. Peptide text beside a SMILES is read from it. dNMeW = CN[C@H](Cc1c[nH]c2ccccc12)C(=O)O
Number only, in nM; omit the unit.

Tell me reported Kd for C[C@@H](O)[C@H](NC(=O)[C@@H]1CSSC[C@H](NC(=O)[C@H](N)Cc2ccccc2)C(=O)N[C@@H](Cc2ccccc2)C(=O)N[C@H](Cc2c[nH]c3ccccc23)C(=O)N(C)[C@@H](CCCCN)C(=O)N[C@@H]([C@@H](C)O)C(=O)N1)C(N)=O , tested with hSSTR-2 (Homo sapiens, UniProt P30874).
Sequence (P30874 whole entry): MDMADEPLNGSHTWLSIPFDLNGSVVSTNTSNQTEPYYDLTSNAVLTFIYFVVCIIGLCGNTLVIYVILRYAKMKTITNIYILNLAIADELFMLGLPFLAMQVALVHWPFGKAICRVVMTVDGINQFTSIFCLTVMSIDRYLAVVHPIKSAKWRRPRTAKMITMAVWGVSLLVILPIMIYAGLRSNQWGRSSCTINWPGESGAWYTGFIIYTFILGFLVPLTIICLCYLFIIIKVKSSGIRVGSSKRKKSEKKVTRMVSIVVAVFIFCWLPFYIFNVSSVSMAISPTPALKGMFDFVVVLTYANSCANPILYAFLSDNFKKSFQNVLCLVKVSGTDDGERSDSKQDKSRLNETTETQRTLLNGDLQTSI
1.84

Tell me reported Kd for C[C@@H](O)[C@H](NC(=O)[C@@H]1CSSC[C@H](NC(=O)[C@@H](N)Cc2ccc(O)cc2)C(=O)N[C@@H](Cc2ccccc2)C(=O)N[C@H](Cc2c[nH]c3ccccc23)C(=O)N[C@@H](CCCCN)C(=O)N[C@@H]([C@@H](C)O)C(=O)N1)C(N)=O [Example 18] (H-YCF[dW]KTCT-NH2; disulfide 2-7; N-terminus assumed) , tested with hSSTR-2 (Homo sapiens, UniProt P30874).
10.3

Tell me reported Kd for C[C@@H](O)[C@H](NC(=O)[C@@H]1CSSC[C@H](NC(=O)[C@@H](N)Cc2ccc(O)cc2)C(=O)N[C@@H](Cc2ccccc2)C(=O)N(C)[C@H](Cc2c[nH]c3ccccc23)C(=O)N[C@@H](CCCCN)C(=O)N[C@@H]([C@@H](C)O)C(=O)N1)C(N)=O [Example 13] (H-YCF[dNMeW]KTCT-NH2; disulfide 2-7; N-terminus assumed) , tested with hSSTR-2 (Homo sapiens, UniProt P30874).
120

---

target_or_test_system: UniProt:P32745
Bridge positions count the residues as written; N and C are the ends. Square brackets hold non-standard residues; d marks the D form. Peptide text beside a SMILES is read from it. NMeF = CN[C@@H](Cc1ccccc1)C(=O)O
Recorded Kd, one value per entry.
Number only, in nM; omit the unit.

compound	units_label	Kd
C[C@@H](O)[C@H](NC(=O)[C@@H]1CSSC[C@H](NC(=O)[C@H](N)Cc2ccccc2)C(=O)N[C@@H](Cc2ccccc2)C(=O)N[C@H](Cc2c[nH]c3ccccc23)C(=O)N[C@@H](CCCCN)C(=O)N[C@@H]([C@@H](C)O)C(=O)N1)C(N)=O	nM	11.8

Continue with the next compound.
Tell me reported Kd for C[C@@H](O)[C@H](NC(=O)[C@@H]1CSSC[C@H](NC(=O)[C@@H](N)Cc2ccc(O)cc2)C(=O)N(C)[C@@H](Cc2ccccc2)C(=O)N[C@H](Cc2c[nH]c3ccccc23)C(=O)N[C@@H](CCCCN)C(=O)N[C@@H]([C@@H](C)O)C(=O)N1)C(N)=O [Example 12] (H-YC[NMeF][dW]KTCT-NH2; disulfide 2-7; N-terminus assumed) , tested with UniProt:P32745.
94.2

---

Recorded Kd, one value per entry.
target_or_test_system: hSSTR-5 (Homo sapiens, UniProt P35346)
Sequence (P35346 whole entry): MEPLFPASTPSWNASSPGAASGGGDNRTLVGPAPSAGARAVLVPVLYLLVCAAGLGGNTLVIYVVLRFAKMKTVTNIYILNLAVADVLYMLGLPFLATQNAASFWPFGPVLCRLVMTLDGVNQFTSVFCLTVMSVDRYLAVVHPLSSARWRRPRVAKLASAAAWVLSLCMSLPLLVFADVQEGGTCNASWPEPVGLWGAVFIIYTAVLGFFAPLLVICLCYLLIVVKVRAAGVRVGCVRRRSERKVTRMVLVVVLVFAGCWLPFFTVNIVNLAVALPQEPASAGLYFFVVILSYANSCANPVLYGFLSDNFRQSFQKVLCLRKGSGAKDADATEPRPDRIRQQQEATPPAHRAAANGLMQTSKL
Bridge positions count the residues as written; N and C are the ends. Square brackets hold non-standard residues; d marks the D form. Peptide text beside a SMILES is read from it. NMeT = CN[C@H](C(=O)O)[C@@H](C)O; NMeC = CN[C@@H](CS)C(=O)O
State the value, then name its unit.

molecule	Kd
C[C@@H](O)[C@H](NC(=O)[C@@H]1CSSC[C@H](NC(=O)[C@H](N)Cc2ccccc2)C(=O)N[C@@H](Cc2ccccc2)C(=O)N(C)[C@H](Cc2c[nH]c3ccccc23)C(=O)N[C@@H](CCCCN)C(=O)N[C@@H]([C@@H](C)O)C(=O)N1)C(N)=O [Example 4]	0.61 nM
CN[C@H](Cc1ccccc1)C(=O)N[C@H]1CSSC[C@@H](C(=O)N[C@H](C(N)=O)[C@@H](C)O)NC(=O)[C@H]([C@@H](C)O)NC(=O)[C@H](CCCCN)NC(=O)[C@@H](Cc2c[nH]c3ccccc23)NC(=O)[C@H](Cc2ccccc2)NC1=O [Example 1]	4.89 nM
C[C@@H](O)[C@H](NC(=O)[C@@H]1CSSC[C@H](N(C)C(=O)[C@@H](N)Cc2ccc(O)cc2)C(=O)N[C@@H](Cc2ccccc2)C(=O)N[C@H](Cc2c[nH]c3ccccc23)C(=O)N[C@@H](CCCCN)C(=O)N[C@@H]([C@@H](C)O)C(=O)N1)C(N)=O [Example 11] (H-Y[NMeC]F[dW]KTCT-NH2; disulfide 2-7; N-terminus assumed)	114 nM

Continue with the next molecule.
Which Kd is reported for this molecule? C[C@@H](O)[C@H](NC(=O)[C@@H]1CSSC[C@H](NC(=O)[C@@H](N)Cc2ccc(O)cc2)C(=O)N[C@@H](Cc2ccccc2)C(=O)N[C@H](Cc2c[nH]c3ccccc23)C(=O)N[C@@H](CCCCN)C(=O)N(C)[C@@H]([C@@H](C)O)C(=O)N1)C(N)=O [Example 15] (H-YCF[dW]K[NMeT]CT-NH2; disulfide 2-7; N-terminus assumed)
92.8 nM

---

Reported pKd, hSSTR-3 (Homo sapiens, UniProt P32745).
Bridge positions count the residues as written; N and C are the ends. Square brackets hold non-standard residues; d marks the D form. Peptide text beside a SMILES is read from it. NMeT = CN[C@H](C(=O)O)[C@@H](C)O; NMeC = CN[C@@H](CS)C(=O)O
In textbook form, pKd equals minus log to base ten of the concentration in mol/L.

Sample records with pKd:
compound	pKd
C[C@@H](O)[C@H](NC(=O)[C@@H]1CSSC[C@H](NC(=O)[C@@H](N)Cc2ccc(O)cc2)C(=O)N[C@@H](Cc2ccccc2)C(=O)N[C@H](Cc2c[nH]c3ccccc23)C(=O)N[C@@H](CCCCN)C(=O)N(C)[C@@H]([C@@H](C)O)C(=O)N1)C(N)=O [Example 15] (H-YCF[dW]K[NMeT]CT-NH2; disulfide 2-7; N-terminus assumed)	6.36
C[C@@H](O)[C@H](NC(=O)[C@@H]1CSSC[C@H](N(C)C(=O)[C@@H](N)Cc2ccc(O)cc2)C(=O)N[C@@H](Cc2ccccc2)C(=O)N[C@H](Cc2c[nH]c3ccccc23)C(=O)N[C@@H](CCCCN)C(=O)N[C@@H]([C@@H](C)O)C(=O)N1)C(N)=O [Example 11] (H-Y[NMeC]F[dW]KTCT-NH2; disulfide 2-7; N-terminus assumed)	8.56

Continue with the next compound.
Which pKd is reported for this compound? C[C@@H](O)[C@H](NC(=O)[C@@H]1CSSC[C@H](N(C)C(=O)[C@H](N)Cc2ccccc2)C(=O)N[C@@H](Cc2ccccc2)C(=O)N[C@H](Cc2c[nH]c3ccccc23)C(=O)N[C@@H](CCCCN)C(=O)N[C@@H]([C@@H](C)O)C(=O)N1)C(N)=O
7.89

---

pKd: −log10 of the molar value. Bridge positions count the residues as written; N and C are the ends. Square brackets hold non-standard residues; d marks the D form. Peptide text beside a SMILES is read from it. NMeT = CN[C@H](C(=O)O)[C@@H](C)O; NMeC = CN[C@@H](CS)C(=O)O
Reported pKd, hSSTR-4 (Homo sapiens, UniProt P31391).

Sample records with pKd:
molecule	pKd
C[C@@H](O)[C@H](NC(=O)[C@@H]1CSSC[C@H](NC(=O)[C@@H](N)Cc2ccc(O)cc2)C(=O)N[C@@H](Cc2ccccc2)C(=O)N[C@H](Cc2c[nH]c3ccccc23)C(=O)N[C@@H](CCCCN)C(=O)N(C)[C@@H]([C@@H](C)O)C(=O)N1)C(N)=O [Example 15] (H-YCF[dW]K[NMeT]CT-NH2; disulfide 2-7; N-terminus assumed)	≤ 6.00
C[C@@H](O)[C@H](NC(=O)[C@@H]1CSSC[C@H](NC(=O)[C@H](N)Cc2ccccc2)C(=O)N[C@@H](Cc2ccccc2)C(=O)N[C@H](Cc2c[nH]c3ccccc23)C(=O)N(C)[C@@H](CCCCN)C(=O)N[C@@H]([C@@H](C)O)C(=O)N1)C(N)=O [Example 5]	< 6.00
C[C@@H](O)[C@H](NC(=O)[C@@H]1CSSC[C@H](NC(=O)[C@H](N)Cc2ccccc2)C(=O)N[C@@H](Cc2ccccc2)C(=O)N[C@H](Cc2c[nH]c3ccccc23)C(=O)N[C@@H](CCCCN)C(=O)N(C)[C@@H]([C@@H](C)O)C(=O)N1)C(N)=O [Example 6]	< 6.00

Tell me reported pKd for C[C@@H](O)[C@H](NC(=O)[C@@H]1CSSC[C@H](NC(=O)[C@@H](N)Cc2ccc(O)cc2)C(=O)N[C@@H](Cc2ccccc2)C(=O)N[C@H](Cc2c[nH]c3ccccc23)C(=O)N[C@@H](CCCCN)C(=O)N[C@@H]([C@@H](C)O)C(=O)N1C)C(N)=O [Example 16] (H-YCF[dW]KT[NMeC]T-NH2; disulfide 2-7; N-terminus assumed) , tested with hSSTR-4 (Homo sapiens, UniProt P31391).
Sequence (P31391 whole entry): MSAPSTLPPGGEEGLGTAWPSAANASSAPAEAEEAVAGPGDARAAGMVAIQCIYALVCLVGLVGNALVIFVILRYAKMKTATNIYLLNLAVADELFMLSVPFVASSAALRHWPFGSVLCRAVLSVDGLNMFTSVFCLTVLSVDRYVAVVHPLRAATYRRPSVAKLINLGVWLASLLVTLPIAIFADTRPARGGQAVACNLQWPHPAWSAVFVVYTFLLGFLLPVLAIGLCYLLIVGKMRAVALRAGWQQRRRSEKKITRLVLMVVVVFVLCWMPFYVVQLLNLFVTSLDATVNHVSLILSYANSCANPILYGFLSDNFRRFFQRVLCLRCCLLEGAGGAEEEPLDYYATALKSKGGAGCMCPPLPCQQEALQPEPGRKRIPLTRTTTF
6.49

Tell me reported pKd for C[C@@H](O)[C@H](NC(=O)[C@@H]1CSSC[C@H](NC(=O)[C@H](N)Cc2ccccc2)C(=O)N[C@@H](Cc2ccccc2)C(=O)N[C@H](Cc2c[nH]c3ccccc23)C(=O)N[C@@H](CCCCN)C(=O)N[C@@H]([C@@H](C)O)C(=O)N1C)C(N)=O [Example 7] , tested with hSSTR-4 (Homo sapiens, UniProt P31391).
6.24

Tell me reported pKd for C[C@@H](O)[C@H](NC(=O)[C@@H]1CSSC[C@H](NC(=O)[C@H](N)Cc2ccccc2)C(=O)N[C@@H](Cc2ccccc2)C(=O)N(C)[C@H](Cc2c[nH]c3ccccc23)C(=O)N[C@@H](CCCCN)C(=O)N[C@@H]([C@@H](C)O)C(=O)N1)C(N)=O [Example 4] , tested with hSSTR-4 (Homo sapiens, UniProt P31391).
< 6.00
